Source of measurements: PubChem BioAssay

Molecular target: Dickkopf-related protein 1 (Homo sapiens)
Assay: small molecules binding DKK1 protein – biochemical, small-molecule microarray, 635 nm fluorescence scan, primary screen (AID 1106);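 also: score merges emission near 667 nm with signal to noise over three replicate slides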
Conditions: higher = more signal
Reported values of composite z-score for individual entries
measured attribute: composite z-score

1) [N-]=[N+]=Nc1ccccc1[C@H]1OC(c2ccc(OCCCO)cc2)=N[C@@]1(Cc1ccccc1)C(=O)N1CCOCC1: 0.477
2) C#CCN1[C@H](/C=C/C2CC2)[C@H](Cc2ccccc2)OC(=O)[C@@H]1Cc1ccccc1: 0.428
3) COc1cc2c(cc1O)C=[N+](Cc1cc3c(cc1Br)OCO3)CC2: -1.05
4) O=C1C[C@@](C(=O)NCc2ccccc2)(c2ccc([N+](=O)[O-])cc2)[C@@H](c2ccc(CO)cc2)N1CC12CC3CC(CC(C3)C1)C2: 0.0703
5) COc1ccc([Si](C)(C)[C@@H]2[C@@H](CCn3cc(CCO)nn3)O[C@]3(C(=O)N(Cc4cccc(N5C(=O)c6cccc7cccc5c67)c4)c4ccccc43)[C@H]2C)cc1: 0.135
6) NC(=O)[C@@]1(Cc2ccccc2)N=C(c2ccc(OCCCO)cc2)O[C@H]1c1ccccc1: -0.348
7) CC(=O)n1cc(C(O)C2C=CC3C(=O)NC(=O)C3N2Nc2ccccn2)c2ccccc21 (stereo unspecified): 0.339
8) C#CCNCc1ccccc1: 0.183
9) COC(=O)c1c2oc(c1C(=O)OC)C(=O)N[C@@H](C(C)C)Cn1cc(nn1)C1(CCCCC1)NC(=O)N[C@H](CO)CC2: 0.145
10) COc1cc2c(cc1OC)CN(C(=O)[C@H]1[C@@H]3C(=O)O[C@@H](c4ccccc4)[C@@H](c4ccccc4)N3[C@@H](c3ccccc3OCCO)[C@]13C(=O)Nc1ccc(C#CCCO)cc13)CC2: 0.518
11) O=C(CS)NCCCCCNC(=O)[C@@H]1C[C@@H]2C(=O)NCC(=O)N2[C@@H]1c1cccc(OCCO)c1: 0.543
12) COCCCNC(=O)[C@@]1(Cc2ccccc2CN=[N+]=[N-])N=C(c2ccc(OCCCO)cc2)O[C@H]1c1ccccc1CN=[N+]=[N-]: -0.629
13) COC(=O)c1c(CC[C@@H](CO)NC(=O)NCCc2c[nH]c3ccccc23)oc(C(=O)Cc2ccccc2)c1C(=O)OC: 0.263
14) CCOc1cc(C(O)C2C=CC3C(=O)N(c4ccccc4)C(=O)C3N2Nc2ccc(C(C)C)cc2)ccc1O (stereo unspecified): -0.332
15) CN1C(=O)C2C=CC(C(O)c3ccc(F)cc3)N(N(c3ccccc3)c3ccccc3)C2C1=O (stereo unspecified): -0.742
16) C=C(CCCC)C(=O)CC[C@H](OC(=O)c1cccnc1)c1ccc(OCCO)cc1: 0.183

====

Reported values of composite z-score for individual entries
Target: Dihydroorotate dehydrogenase (quinone), mitochondrial (Plasmodium falciparum (isolate 3D7)) (UniProt Q08210)
Sequence (Q08210 whole entry, looked up): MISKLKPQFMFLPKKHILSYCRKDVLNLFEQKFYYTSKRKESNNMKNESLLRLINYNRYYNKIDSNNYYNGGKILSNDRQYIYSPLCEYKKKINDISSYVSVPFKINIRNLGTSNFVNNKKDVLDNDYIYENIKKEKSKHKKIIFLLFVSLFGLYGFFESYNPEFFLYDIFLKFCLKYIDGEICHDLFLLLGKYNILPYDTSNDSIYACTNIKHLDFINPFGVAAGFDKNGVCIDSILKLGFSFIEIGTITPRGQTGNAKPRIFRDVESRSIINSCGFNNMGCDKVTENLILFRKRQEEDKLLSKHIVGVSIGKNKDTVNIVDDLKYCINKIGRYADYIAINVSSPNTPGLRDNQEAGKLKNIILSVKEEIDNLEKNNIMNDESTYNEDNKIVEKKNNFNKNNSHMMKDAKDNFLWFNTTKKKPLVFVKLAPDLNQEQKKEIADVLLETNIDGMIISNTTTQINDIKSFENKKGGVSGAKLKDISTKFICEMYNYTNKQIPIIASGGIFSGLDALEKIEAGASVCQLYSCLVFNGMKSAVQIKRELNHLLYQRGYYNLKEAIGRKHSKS
Assay: inhibition of P. falciparum DHODH – biochemical, C-terminal His tag, absorbance 600 nm, primary screen (AID 1175);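 also: recombinant parasite enzyme with a five histidine tag at its C terminus; test concentration not given here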
Conditions: PfDHODH enzyme, DCIP absorbance 600 nm; higher = more signal, called active from +8 up or from −8 down
The source made the active and inactive calls.
measured attribute: composite z-score

1) COc1cc2c(cc1OC)CN(C(=O)[C@H]1[C@@H]3C(=O)O[C@@H](c4ccccc4)[C@@H](c4ccccc4)N3[C@@H](c3ccccc3OCCO)[C@]13C(=O)Nc1ccc(C#CCCO)cc13)CC2: 0.749 (inactive)
2) COCCCNC(=O)[C@@]1(CCS(=O)(=O)c2ccccc2)N=C(c2ccc(OCCCO)cc2)O[C@H]1c1ccccc1N=[N+]=[N-]: -0.396 (inactive)
3) O=C1O[C@@H](c2ccccc2)[C@@H](c2ccccc2)N2[C@@H](c3ccc(OCCO)cc3)[C@]3(C(=O)Nc4ccc(C#CC5=CCCCC5)cc43)[C@@H](C(=O)N3CCCCCCC3)[C@H]12: -0.73 (inactive)
4) NC(=O)[C@@H]1[C@H]2C(=O)O[C@H](c3ccccc3)[C@H](c3ccccc3)N2[C@H](c2ccc(OCCO)cc2)[C@@]12C(=O)Nc1ccc(C#CC3=CCCCC3)cc12: 0.207 (inactive)
5) C=CCN(Cc1ccccc1)C(=O)C(c1cccs1)N(C(=O)/C=C\C(=O)O)c1ccc(CCOCCO)cc1 (configuration not stated): -1.54 (inactive)
6) C=C(/C(=C/C[C@H](OC(C)=O)c1ccc(OCCO)cc1)c1cc(C(=O)OC)ccc1OC)C(C)C: -0.858 (inactive)
7) COC(=O)c1c2oc(c1C(=O)OC)C(=O)NC1(CCCCC1)c1cn(nn1)C[C@H](Cc1ccccc1)NC(=O)N[C@H](CO)CC2: -0.805 (inactive)

====

Assay: calcein-AM signal in unstimulated myeloma cells – cell-based, calcein-AM fluorescence, 48 h, PK04 Diversity Set, profiling panel (AID 1166);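 also: cells grown under basal conditions without added stimulus; test concentration not given here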
Conditions: RPMI8226 myeloma viability, higher = more signal
Response field label takes y when z-score is strictly below -0.8 and n in all other cases.

1. CC(=O)NCCCC[C@@H]1NC(=O)[C@H]2C[C@@H](C(=O)NCCCCCNC(=O)CS)[C@@H](c3ccc(O)cc3)N2C1=O: n
2. O=C1NC(=O)C2C1C=CC(C(O)C=Cc1ccc([N+](=O)[O-])cc1)N2Nc1ccc(Cl)cc1Cl (stereo not given): y
3. COCCOC(=O)N1C(=O)[C@@]2(c3ccccc31)[C@H](C(=O)N1CCCCCCC1)[C@H]1C(=O)O[C@H](c3ccccc3)[C@H](c3ccccc3)N1[C@@H]2c1ccc(OCCO)cc1: y
4. CCCCC(O)C1C=CC2C(=O)N(C)C(=O)C2N1N1CCCCC1 (stereo not given): n
5. COC(=O)[C@@]1(Cc2ccc(F)cc2)[C@H]2c3cc(C(=O)N(C)C)n(Cc4ccc(C)o4)c3C[C@H]2CN1C(=O)c1ccccc1: y
6. CCCC[C@H]1C[C@@H]1[C@@H]1N(P(=O)(c2ccccc2)c2ccccc2)C[C@@](O)(c2ccccc2)CC12CC2: y
7. C=CCC(OC(C)=O)[C@@H]1[C@@H](N(Cc2cc3ccccc3o2)C(=O)Cc2ccc(OC)cc2)c2cc(OCCCO)ccc2N1C(=O)c1ccc2ccccc2c1 (stereo not given in full): n
8. CC(C)NC(=O)[C@@]1(Cc2ccccc2I)c2ccccc2C(=O)N(Cc2ccccc2Cl)[C@H]1c1ccc(CO)cc1: y
9. CN(C)CCCC[C@@H]1NC(=O)[C@H]2C[C@@H](C(=O)NCCCCCN)[C@@H](c3cccc(OCCO)c3)N2C1=O: n
10. O=C1[C@@]23C=C(Br)[C@H](C[C@@H]2COC3)[C@]12CO2: y
11. C=C(CCCC)/C(=C/C[C@H](OC(=O)c1ccncc1)c1ccc(OCCO)cc1)c1cc(C(=O)OC)ccc1OC: y
12. C[N+](C)(C)CCCC[C@@H]1NC(=O)[C@@H]2C[C@H](C(=O)NCCCCCCNC(=O)CS)[C@H](c3ccc(O)cc3)N2C1=O: n
13. O=C1O[C@H](c2ccccc2)[C@H](c2ccccc2)N2[C@H]1[C@@H](C(=O)N1CCN(c3ncccn3)CC1)[C@]1(C(=O)Nc3ccc(C#CC4=CCCCC4)cc31)[C@H]2c1ccccc1OCCO: y
14. Cc1ccc(S[C@]2(C(=O)O)CC(=O)N(C(C)C)[C@@H]2c2ccc(CO)cc2)cc1: n

====

Reported values of z-score for individual entries
Test: compound effects on lung adenocarcinoma cell viability – A549, calcein-AM fluorescence, 48 h, basal, profiling panel (AID 1162); also: test concentration not given here
Conditions: higher = more signal
measured attribute: z-score

1. CCOc1cc(C(O)C2C=CC3C(=O)N(c4ccccc4)C(=O)C3N2Nc2ccc(C(C)C)cc2)ccc1O (stereo not given): -0.65
2. CCC(CC)C(O)C1C=CC2C(=O)N(c3ccccc3)C(=O)C2N1Nc1ccccc1 (stereo not given): 0.857
3. C=C(/C(=C/C[C@H](OC(C)=O)c1ccc(OCCO)cc1)c1cc(C(=O)OC)ccc1OC)C(C)C: 1.32
4. COC(=O)c1c(CC[C@@H](CO)NC(=O)N[C@H](Cc2ccccc2)Cn2cc(-c3ccccn3)nn2)oc(C(C)=O)c1C(=O)OC: 0.372
5. CCCC=C(CCC)[C@@H](NC(=O)OCC(C)C)c1ccccc1: -0.628
6. [N-]=[N+]=NCc1ccccc1[C@H]1OC(c2ccc(OCCCO)cc2)=N[C@@]1(Cc1ccccc1)C(=O)N1CCCCC1: 0.562
7. C=C(C(=O)CC[C@H](OC(C)=O)c1ccccc1OCCO)C(C)C: -2.33
8. NCCCCCNC(=O)[C@H]1C[C@H]2C(=O)N3CCC[C@H]3C(=O)N2[C@H]1c1ccc(O)cc1: -0.246
9. OCCCC1=CC(C2CC2)N(Cc2cccc(OC(F)(F)F)c2)CC1 (stereo not given): -0.346
10. NC(=O)NCC#Cc1ccc2c(c1)[C@]1(C(=O)N2)[C@H](C(=O)O)[C@H]2C(=O)O[C@H](c3ccccc3)[C@H](c3ccccc3)N2[C@@H]1c1ccc(O)cc1: 0.715
11. COC(=O)[C@@]1(Cc2ccc(F)cc2)[C@H]2c3cc(C(=O)N(C)C)n(Cc4ccc(C)o4)c3C[C@H]2CN1C(=O)c1ccccc1: 0.0895
12. COC(=O)C[C@H]1O[C@@H](CCc2ccccc2)[C@@H](C)[C@@H]1[Si](C)(C)c1ccc(OC)cc1: 1.47
13. CN1C(=O)C2C=CC(C(O)c3ccc(F)cc3)N(N(c3ccccc3)c3ccccc3)C2C1=O (stereo not given): -0.631
14. CCN(CC)c1ccc(N2CC=CC34O[C@@H]5C=CCOC(=O)[C@@H]5[C@H]3C(=O)N(CCCCCCO)[C@@H]4C2=O)cc1 (stereo not given in full): -0.705
15. O=C(NCc1ccccc1)[C@@H]1c2ccccc2C(=O)N(C2Cc3ccccc3C2)[C@H]1c1ccc(CO)cc1: 0.365
16. CC(CO)N1C(=O)[C@@H]2C3C(=O)OCCC/C=C\[C@H]3OC23C=CCN(CCN2CCOCC2)C(=O)[C@@H]13 (stereo not given in full): -0.31
17. CO[C@H]1O[C@H](CO)[C@@H](OC(=O)Nc2ccc(Br)cc2)[C@@H]2OC(=O)[C@H](Cc3cccc(Br)c3)C/C=C/C[C@@H](Cc3cccc(Br)c3)C(=O)O[C@@H]12: 0.193
18. COCCOC(=O)N1C(=O)[C@@]2(c3ccccc31)[C@H](C(=O)N1CCc3cc(OC)c(OC)cc3C1)[C@H]1C(=O)O[C@H](c3ccccc3)[C@H](c3ccccc3)N1[C@@H]2c1ccc(O)cc1: 2.4
19. CCCCC(=C=CC[C@H](O)c1cccc(OCCO)c1)C[C@H](O)c1ccccn1: 1.35
20. CC(C)OC(=O)C=C1C[C@@H](c2cccc(Cl)c2)O[C@@H](c2cccc(Cl)c2)O1: -1.2
21. O=C1O[C@@H](c2ccccc2)[C@@H](c2ccccc2)N2[C@@H](c3ccc(OCCO)cc3)[C@]3(C(=O)Nc4ccc(C#CC5=CCCCC5)cc43)[C@@H](C(=O)N3CCCCCCC3)[C@H]12: -0.364
22. CCCCC(=C=CC[C@@H](O)c1ccc(CO)o1)CCO: 1.48
23. C=CCOC(=O)[C@H]1[C@@H]2C(=O)O[C@@H](c3ccccc3)[C@@H](c3ccccc3)N2[C@@H](c2ccc(OCCOC(=O)[C@@H]3C[C@@H]4C(=O)N5CCC[C@H]5C(=O)N4[C@@H]3c3cccc(OCCO)c3)cc2)[C@]12C(=O)Nc1ccc(I)cc12: -1.06
24. O=C1OCCC/C=C\[C@H]2OC34C=CCN(c5ccc6ccccc6c5)C(=O)[C@H]3N(CCCCCO)C(=O)[C@@H]4C12 (stereo not given in full): 0.0648
25. NC(=O)[C@@H]1[C@H]2C(=O)O[C@H](c3ccccc3)[C@H](c3ccccc3)N2[C@H](c2ccc(O)cc2)[C@@]12C(=O)Nc1ccc(C#CC3=CCCCC3)cc12: -1.42
26. CCCC1(C(=O)OC)C=C2C(=C(c3ccccc3)C(=O)C2C)CN1 (stereo not given): -1
27. O=C(NC1CC1)[C@@H]1c2ccccc2C(=O)N(Cc2cc(F)cc(C(F)(F)F)c2)[C@H]1c1ccc(CO)cc1: 0.35
28. C[N+](C)(C)CCCC[C@@H]1NC(=O)[C@H]2C[C@@H](C(=O)NCCCCCCNC(=O)CS)[C@@H](c3ccc(O)cc3)N2C1=O: -0.293
29. C=C[C@H](C)[C@@H](OC(=O)Nc1ccc(SC)cc1)c1ccc(O)c2ccccc12: -0.89
30. CC(C)[Si](C#CCCCC#N)(O[C@H](c1ccccc1)c1cn(Cc2cccc(Cl)c2)nn1)C(C)C: -1.13
